Test: Pharmacokinetics in rats (exposure, AUC)
Assay type: in vivo, male Sprague Dawley rats
Details: male, Sprague Dawley, rat, plasma, po, 5 mg/kg
metric_name: AUC (ng·h/mL)

Record excerpt, results attached:
Cc1ccc(NC(=O)c2cccc(N(C)C)c2)cc1-c1ccc2c(C(O)CN3CCOCC3)n[nH]c2n1 (centres unmarked) ... 1790
CCc1n[nH]c2nc(-c3cc(NC(=O)c4cc(C)cc(C)c4)cnc3C)ccc12 ... 1270
Cc1cccc(C(=O)Nc2ccc(C)c(-c3ccc4c(C(O)CN5CCOCC5)n[nH]c4n3)c2)c1 (centres unmarked) ... 214

I = COc1cc(OC)cc(C(=O)Nc2ccc(C)c(-c3ccc4c(CO)n[nH]c4n3)c2)c1
II = CCc1n[nH]c2nc(-c3cc(NC(=O)c4cc(OC)cc(OC)c4)cnc3C)ccc12
**Query** Higher AUC: I or II ? In your reply, give the label of the chosen option.
**Result** II

---

Test: Plasma exposure at day 7 in the MDA-MB-231 xenograft experiment
Assay type: in vivo, Female BALB/c Mice
Conditions: female, BALB/c, mouse, plasma, po; day 7, 100 mg/kg p.o.
metric_name: AUC (ng·h/mL)
Reply numerically in ng·h/mL, unit not repeated.

**Query** AUC lookup needed for Cc1ccc(NC(=O)c2cccc(C(F)(F)F)c2)cc1-c1cc(C)c2c(N)n[nH]c2n1 , thanks.
**Result** 4240

---

Recorded pIC50 for the following compounds
Target: EphA2 (UniProt Ref: P29317) (Homo sapiens, UniProt P29317)
Sequence (P29317 24-976): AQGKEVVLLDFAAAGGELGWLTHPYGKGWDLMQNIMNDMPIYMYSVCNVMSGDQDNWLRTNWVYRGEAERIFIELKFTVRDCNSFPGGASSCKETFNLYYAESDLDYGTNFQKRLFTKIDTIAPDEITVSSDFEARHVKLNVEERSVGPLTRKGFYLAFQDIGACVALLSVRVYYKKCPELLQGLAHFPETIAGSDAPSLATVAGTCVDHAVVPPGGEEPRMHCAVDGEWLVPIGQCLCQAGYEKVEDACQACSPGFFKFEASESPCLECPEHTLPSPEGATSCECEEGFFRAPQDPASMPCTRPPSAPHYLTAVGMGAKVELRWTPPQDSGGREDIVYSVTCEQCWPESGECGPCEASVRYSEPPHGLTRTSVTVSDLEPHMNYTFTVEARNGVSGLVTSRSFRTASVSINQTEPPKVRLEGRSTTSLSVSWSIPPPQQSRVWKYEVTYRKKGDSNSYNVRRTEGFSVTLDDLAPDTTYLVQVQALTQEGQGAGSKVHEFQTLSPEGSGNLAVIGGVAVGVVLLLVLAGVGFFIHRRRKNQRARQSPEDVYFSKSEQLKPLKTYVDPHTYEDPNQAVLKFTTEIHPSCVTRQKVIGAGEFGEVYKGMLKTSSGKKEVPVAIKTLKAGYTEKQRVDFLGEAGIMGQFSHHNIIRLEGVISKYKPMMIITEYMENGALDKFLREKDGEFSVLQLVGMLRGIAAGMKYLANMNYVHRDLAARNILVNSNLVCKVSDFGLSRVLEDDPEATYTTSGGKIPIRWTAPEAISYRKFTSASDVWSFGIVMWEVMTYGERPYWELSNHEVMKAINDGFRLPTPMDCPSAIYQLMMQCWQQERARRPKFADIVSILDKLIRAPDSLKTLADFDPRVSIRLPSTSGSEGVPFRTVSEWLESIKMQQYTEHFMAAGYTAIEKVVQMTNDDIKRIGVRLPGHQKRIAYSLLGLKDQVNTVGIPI
Assay: EphA2 assay (Reaction Biology HotSpot radioactive kinase assay)
Details: ATP 10 μM; read-out: EphA2 potency IC50
pIC50: −log10 of the molar value.

Take a look at these entries with their results.
CCc1n[nH]c2nc(-c3cc(NC(=O)c4cc(C)cc(OCCN5CCOCC5)c4)ccc3C)ccc12 [Compound 20] ... 7.60 to 11.00
CCc1n[nH]c2nc(-c3cc(NC(=O)c4cc(C)cc(OCCO)c4)ccc3C)ccc12 [Compound 23] ... 7.60 to 11.00

**Query** Given the entry CCc1n[nH]c2nc(-c3cc(NC(=O)c4cc(C)cc(C)c4)cnc3C)ccc12 [Compound 50] , report its measured pIC50.
**Result** 7.00 to 7.30

**Query** Another compound to check: COc1cc(OC)cc(C(=O)Nc2ccc(C)c(-c3ccc4c(C)n[nH]c4n3)c2)c1 [Compound 11]
**Result** 7.60 to 11.00

**Query** Proceed to CCc1n[nH]c2nc(-c3cc(NC(=O)c4cc(OC)cc(C5CC5)c4)cnc3C)ccc12 [Compound 38]
**Result** 7.60 to 11.00

**Query** Repeat for the following compound: Cc1cc(OCCN2CCOCC2)cc(C(=O)Nc2ccc(C)c(-c3ccc4c(C(C)O)n[nH]c4n3)c2)c1 (centres unmarked) [Compound 28]
**Result** 7.30 to 7.60

**Query** Please do the same for CCc1n[nH]c2nc(-c3cc(NC(=O)c4cc(OC)cc(OC)c4)ccc3Cl)ccc12 [Compound 22] as well.
**Result** 7.30 to 7.60

**Query** Also check COc1cc(OC)cc(C(=O)Nc2ccc(C)c(-c3ccc4c(C5(O)CC5)n[nH]c4n3)c2)c1 [Compound 29]
**Result** 7.00 to 7.30
